# Tested on: HOP-62 NSCLC
# experimental-protocol: NCI-60 one-dose screen, 48 h (100 = growth as untreated, 0 = no growth, -100 = all killed)
# measurement-parameters: 10 µM unless noted
# Procedure: Growth inhibition of the HOP-62 human Non-Small Cell Lung tumor cell line is measured as a screen for anti-cancer activity. Cells are grown in 96 well plates and exposed to the test compound for 48 hours. Compounds are tested at a single concentration, which is 10^-5 M for most compounds. The reported endpoint is percent growth (GI% or GIPRCNT), where numbers from 0 - 100% represent growth inhibition, and numbers from -100% - 0 represent cell death. […]
About 83,000 compounds went through this panel and 20% of them were active in at least one assay; those are over-represented in the sample as a whole.
Please respond with reported growth for every item in the list.
Respond numerically; units are % and should not be typed.

Qu. Lab note: need growth with HOP-62 NSCLC for entry `c1ccc2c(c1)ncn2-c1nc2ccccc2n2c1nc1ccccc12` , please look it up.
Ans. 50.1

Qu. # returns recorded growth (system: HOP-62 NSCLC) for `Cc1cc(=O)[nH]c(N/N=C/c2cc(Br)ccc2O)n1`
Ans. 48

Qu. Form entry - test system: HOP-62 NSCLC; read-out: growth; compound: `Cc1ccc(C)c2c1C(=O)OC2=O`
Ans. 92.1

Qu. Kindly state the measured growth obtained for `CC(C)c1ccc(C(=O)OC(=O)c2ccc(C(C)C)cc2)cc1` with HOP-62 NSCLC.
Ans. 86.2

Qu. Form field: growth recorded for `COc1ccc(/C=C2\COc3ccc(O)c(O)c3C2=O)c(OC)c1` with HOP-62 NSCLC (enter value)
Ans. 72.9

Qu. Lab request: please report growth under test system HOP-62 NSCLC for `CNC(=O)c1c(NC(=O)c2ccc(C(C)(C)C)cc2)sc2c1CCC(=O)C2`
Ans. 17

Qu. Recorded growth for `COc1cccc(-c2cnco2)c1OCc1c(C)c(COc2c(OC)cccc2-c2cnco2)c(C)c(COc2c(OC)cccc2-c2cnco2)c1C` with HOP-62 NSCLC, please?
Ans. 42.1

Qu. Field: growth (HOP-62 NSCLC). Entry: O=C(/C=C/C12c3ccccc3C(c3ccccc31)C1C(=O)N(c3ccc(Cl)cc3)C(=O)C12)c1ccccn1 (stereo unspecified)
Ans. 5.06

Qu. Recorded growth for CCOC(=O)C(O)C(O)(c1ccccc1)c1ccccc1 (stereo unspecified) with HOP-62 NSCLC, please?
Ans. 97

Qu. Fill in the recorded growth for this compound, with HOP-62 NSCLC as test system: `C=C1C(=O)O[C@H]2[C@H]1CC/C(COC(=O)NCc1ccc(Cn3c(=O)sn(CCCCl)c3=O)cc1)=C\CC[C@@]1(C)O[C@@H]21`
Ans. 87.2

Qu. Provide the documented growth with HOP-62 NSCLC as the system for `CCN(CC)S(=O)(=O)c1ccc(O)c(NC(=O)c2[nH]c(C)c(C(C)=O)c2CCc2ccc(Cl)cc2)c1`
Ans. 48.9

* * *

# Tested on: SF-268 CNS
# experimental-protocol: NCI-60 one-dose screen, 48 h (100 = growth as untreated, 0 = no growth, -100 = all killed)
# measurement-parameters: 10 µM unless noted
Compounds without any hit were thinned out: in the full panel of roughly 83,000, 20% have a hit. Activity calls are given as the source filed them. How the source made its calls: active means growth percent below 10; inactive means the rest.
Task for the reader: assign each of the following compounds its reported growth.

Qu. Item `CCOC(=O)c1c(C)nc2c(c1N)/C(=C/c1cc(OC)c(OC)c(OC)c1)C(=O)N2c1ccc(OC)cc1` has what recorded growth?
Ans. 45.9% (inactive)

Qu. // returns reported growth for input `COc1cc2c(cc1OC)-c1ccc3cc4c(cc3c1N(CCCN1CCCCC1)C2)OCO4`
Ans. 44.8% (inactive)

Qu. Return reported growth; argument: COc1ccc(C(=O)/C=C/C23c4ccccc4C(c4ccccc42)C2C(=O)NC(=O)C23)cc1 (configuration not stated)
Ans. 90.5% (inactive)

Qu. Find the recorded growth belonging to `COc1ccc(-c2cc(-c3cc(OC)ccc3OC)[nH]c(=O)c2C#N)cc1` and report it.
Ans. 60.3% (inactive)

Qu. Would you kindly share the measured growth for `Clc1ccc(/C=N\N=c2\scc(-c3ccc(Cl)cc3)n2/N=C/c2ccc(Cl)cc2)cc1` ?
Ans. 97.8% (inactive)

Qu. If you can, please state the reported growth value of `CC(=O)C(C(C)=O)c1nc2sc3cc(Cl)ccc3n2c(=N)c1C#N` .
Ans. 77.7% (inactive)

Qu. Which growth value is on record for `Nc1c(C(=O)c2ccc(Cl)s2)sc2nc3c(cc12)CCCC3` ?
Ans. 104% (inactive)

Qu. Please give the measured growth for this compound: `CC1(C)CC(=O)c2c(ccc(C(=O)C[C@H](N)CO)c2N)O1`
Ans. 34.2% (inactive)

Qu. Endpoint output: growth of `COc1ccc(-c2cc(-c3ccc(Nc4nc(Nc5ccccc5)nc(Nc5ccc(Cl)cc5)n4)cc3)nc(N)c2C#N)cc1` . Value?
Ans. -26.4% (active)

Qu. Bench note: what growth did `CCCCCCCCN(CCCCCCCC)C(=N)c1ccnc2ccccc12` show?
Ans. -71.8% (active)

Qu. Given `Cc1nc(Nc2ccc(NC(=S)Nc3ccccc3)cc2)c2ccccc2n1` , state its recorded growth.
Ans. 111% (inactive)

Qu. Recorded growth of `CCCCCCNC(=O)c1cc(NCc2cc(O)ccc2O)ccc1O` , please.
Ans. 53.8% (inactive)

Qu. I am curious: what growth value has been reported for O=C(CC1Sc2ccccc2NC1=O)NNc1ccc(F)cc1 (configuration not stated) ?
Ans. 72.1% (inactive)

Qu. So what's the measured growth for this one? `CCOC(=O)c1c(C)[nH]c(C(=O)CCC(=O)OC)c1C`
Ans. 98.3% (inactive)

Qu. Would you mind telling me what growth value was observed for `COc1cc(C(=O)/C=C/c2c(C(F)(F)F)nc3ccccn23)cc(OC)c1OC` ?
Ans. -36.1% (active)

Qu. Which measured growth value corresponds to CCC(C)NCc1ccccc1 (configuration not stated) ?
Ans. 98.9% (inactive)

Qu. May I ask what growth has been recorded for COc1cc(C2CC(=O)Nc3n[nH]c(-c4ccccc4)c32)cc(OC)c1OC (configuration not stated) ?
Ans. 90.7% (inactive)

Qu. Which growth reading was recorded for the compound `Cc1nc(Nc2ccccn2)sc1C(=O)/C=C/c1ccc(Br)cc1` ?
Ans. 78.8% (inactive)

Qu. Could you tell me which growth is on file for `CN1CCN(C(=O)[C@@]2(C)CC[C@]3(C)CC[C@]4(C)C(=CC[C@@H]5[C@@]6(C)C/C(=C/c7ccncc7)C(=O)C(C)(C)[C@@H]6CC[C@]54C)[C@@H]3C2)CC1` ?
Ans. 67.9% (inactive)

Qu. Reported growth, compound `COc1ccc(-c2cncnc2N)cc1OC` : ____
Ans. 103% (inactive)

Qu. Can you look up the measured growth of `COc1ccc(-c2cc(-c3ccc(Nc4nc(Nc5ccccc5)nc(Nc5ccc(Cl)cc5)n4)cc3)nc(N)n2)cc1` for me?
Ans. 75.8% (inactive)

Qu. Fill blank: measured growth of the compound CC1=NN(c2cccc(Cl)c2)C(=O)/C1=C\c1cn(CC(O)CN2CCCCC2)c2ccccc12 (configuration not stated) is ____.
Ans. 72.6% (inactive)

Qu. // growth lookup, key: `COC(=O)Nc1nc2ccc(C(=O)C3CC3)cc2[nH]1`
Ans. 29.7% (inactive)

Qu. So what's the measured growth for this one? `C=C1C(=O)O[C@H]2[C@H]1CC/C(COC(=O)NCc1ccc(Cn3c(=O)sn(CCCCl)c3=O)cc1)=C\CC[C@@]1(C)O[C@@H]21`
Ans. 44.5% (inactive)

Qu. Find the recorded growth belonging to `Cc1ccc(S(=O)(=O)N(CC[C@@H]2C[C@H]2c2cc3ccccc3o2)C(=O)NC2CCCCC2)cc1` and report it.
Ans. 98.8% (inactive)

Qu. Need growth, item CCOC(=O)C1C(=O)C=C(c2cnccn2)CC1c1ccc(OC)c(OC)c1 (configuration not stated)
Ans. 102% (inactive)

Qu. Can you look up the measured growth of `Cc1nc2ccc(C(=O)NCc3cc(C(=O)O)c(C)o3)cc2nc1C` for me?
Ans. 91.4% (inactive)

Qu. Could you tell me which growth is on file for `Cn1cc(-c2ccc3ncc(-c4ccc(CC(=O)Nc5cc(C(C)(C)C)nn5C)cc4)cc3c2)cn1` ?
Ans. 25.3% [30 µM] (inactive)

Qu. growth for `CCOC(=O)c1c(C)nc2c(c1N)/C(=C/c1ccc(OC)cc1)C(=O)N2Cc1ccc(F)cc1` ?
Ans. -23.6% (active)

Qu. Which growth value is on record for C=C(CNCCc1ccc(O)cc1)[C@@H]1CC[C@]2(COC3CCCCO3)CC[C@]3(C)[C@H](CC[C@@H]4[C@@]5(C)CCC(NCCO)C(C)(C)[C@@H]5CC[C@]43C)[C@@H]12 (some centres not stated) ?
Ans. -87.9% (active)

Qu. Which growth reading was recorded for the compound `O=C(O)c1ccccc1C(=O)Nc1ccc(Cl)cc1` ?
Ans. 94.5% (inactive)

Qu. Give its growth value. Item: `COc1cc(/C=C/C(=O)c2cccc(-n3cc(-c4ccccc4)[nH]c3=O)c2)cc(OC)c1OC`
Ans. 17.7% (inactive)

Qu. Entry `CC[C@]1(O)C[C@H]2CN(CCc3c([nH]c4ccccc34)[C@@](C(=O)OC)(c3cc4c(cc3OC)N(C=O)[C@H]3[C@@](O)(C(=O)OC)[C@H](OC(C)=O)[C@]5(CC)C=CCN6CC[C@]43[C@@H]65)C2)C1` : reported growth = ?
Ans. 23.9% (inactive)

Qu. If you can, please state the reported growth value of `CCNCCNc1cc(-c2ccc(C#N)cc2)c(C#N)c2nc3ccccc3n12` .
Ans. 35.1% (inactive)

Qu. Which growth value belongs to `COc1ccc(/C(C)=C(\c2ccc(Cl)cc2)c2ccc(OCCN(C)C)cc2)cc1F` ?
Ans. 74.5% (inactive)

Qu. GET /values?readout=growth&item= `COc1ccc(CN2C(=O)/C(=C\c3cc(OC)c(OC)c(OC)c3)c3ccccc32)cc1`
Ans. 10.4% (inactive)

Qu. Record request: growth value, item `O=C(CCCCCCCn1cc(-c2cccnc2)nn1)Nc1ccccc1-c1ccccc1`
Ans. 63.8% (inactive)
